Experiment: Cytotoxicity against Homo sapiens (human) LS180 cells after 96 hr by MTT assay
Assay type: functional, cell-based
Details: LS180, 96 h
measuredQuantity: IC16

| molecule | valueObserved |
| --- | --- |
| O=C1CCCC2=C1C(c1ccccc1[N+](=O)[O-])c1c(c3ccccc3oc1=O)O2 (centres undefined) | > 100 µM |
| O=C1CCCC2=C1C(c1cccc(Cl)c1)c1c(c3ccccc3oc1=O)O2 (centres undefined) | > 50 µM |
| O=C1CCCC2=C1C(c1ccc(Br)cc1)c1c(c3ccccc3oc1=O)O2 (centres undefined) | > 100 µM |
| O=C1CCCC2=C1C(c1ccc(Cl)cc1)c1c(c3ccccc3oc1=O)O2 (centres undefined) | > 100 µM |
